Source of measurements: patent US20240209086A1

Molecular target: canine CD3 on canine T cells (canine PBMC) (canine, UniProt P27597 22-202)
Sequence (P27597 22-202 limits assumed, chain 1 of 3): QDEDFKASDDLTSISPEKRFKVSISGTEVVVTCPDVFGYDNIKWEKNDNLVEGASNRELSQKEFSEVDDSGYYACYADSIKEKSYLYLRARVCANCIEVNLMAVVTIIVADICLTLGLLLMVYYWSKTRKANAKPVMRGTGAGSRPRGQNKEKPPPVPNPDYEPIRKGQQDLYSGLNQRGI
Sequence (chain, as listed by the source limits assumed, chain 2 of 3): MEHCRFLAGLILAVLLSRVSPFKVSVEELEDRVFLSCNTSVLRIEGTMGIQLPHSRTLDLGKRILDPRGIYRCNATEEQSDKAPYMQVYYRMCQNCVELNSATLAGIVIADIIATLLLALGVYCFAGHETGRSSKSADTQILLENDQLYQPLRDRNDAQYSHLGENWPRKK
Sequence (chain, as listed by the source limits assumed, chain 3 of 3): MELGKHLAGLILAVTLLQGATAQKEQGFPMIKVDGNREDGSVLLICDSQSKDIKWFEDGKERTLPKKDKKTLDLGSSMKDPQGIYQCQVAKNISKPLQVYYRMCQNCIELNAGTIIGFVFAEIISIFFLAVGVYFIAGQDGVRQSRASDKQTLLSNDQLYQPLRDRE
Test: cell-based or functional assay
# label = class 1 if IFNy Concentration pg/ml, Day 9, PB < 800 pg/mL else class 0

In the record for PMX192 (monospecific anti-canine CD3, canine IgG-B effector function deficient Fc) (antibody, V domains shown) VH: EVQLVESGGDLVKPAGSLRLSCVASGFTFSDYSMSWVRQAPEKGLQLVAGINGDGSTTYYTDAVKGRFTISRDNAKNTVYLQMNSLRAEDTAMYYCAKGAGTGDFWGQGTLVTVSS VL: SYELTQPPSVNVTLRETAHITCGGASIGRKYVQWIQQIPGQAPVVIIYKDSNRPTGIPERFSGANSGNTATLTISGALAEDEADYYCQVGDSGAWVFGEGTQLTVL , is IFNy Concentration pg/ml, Day 9, PB less than 800 pg/mL? class 1

Same question for PMX163 (monospecific anti-canine CD3, canine IgG-B effector function deficient Fc) (antibody, V domains shown) VH: ELALQESGPGLVRPSQTLSLTCVVSGGSVTRSYYWNWIRQRPGRGLEWMGYWTGTTIYNPAFQGRISITVDTAKNQFSLHLISMTTEDTAVYYCGREGGSSLGAIAYWGQGTRVTVSS VL: SYVLTQLPSKNVTLKQPAHITCGGDNIGSKSVHWYQQKLGQAPVLIIYYDSSRPTGIPERFSGANSGNTATLTISGALAEDEADYYCQVWDSSAKAAVFGGGTHLTVL please. class 0

And the next one, PMX193 (monospecific anti-canine CD3, canine IgG-B effector function deficient Fc) (antibody, V domains shown) VH: EVQLVESGGDLVKPGGSLRLSCVASGFTFSTYHMSWVRQAPGKGLQWVAYISSGGSRTNYADAVKGRFTISRDNAKNTLYLQMNSLRAEDAAVFYCARHYGSSLFDYWGQGTLVTVSS VL: DIVMTQTPLSLSVSPGEPASISCKASQSLLHINGNTYLYWFRQKPGQSPQRLIYKVSNRDPGVPDRFSGSGSGTDFTLRISRVEADDAGVYYCGQGIQDPTFGKGTHLEIK ? class 1

Try PMX157 (monospecific anti-canine CD3, canine IgG-B effector function deficient Fc) (antibody, V domains shown) VH: ELTLQESGPGLVKPSQTLSLTCVVSGGSVTSSYFWNWIRQRPGRGLEWMGYWTGSTIYSPAFQGRISITPDTAKNQFSLQLSSMTTEDTAVYYCSREGGSTLGAFAYWGQGTLVTVSS VL: SYVLTQLPSKNVTLKQPAHITCGGDKIGSKSVHWYQQKLGQAPVLIIYYDSSRPTGIPERFSGANSGNTATLTISGALAEDEADYYCQVWDSSAKASVFGGGTHLTVL next. class 0

For PMX176 (monospecific anti-canine CD3, canine IgG-B effector function deficient Fc) (antibody, V domains shown) VH: EVQLVESGGDLVKPGGSLRLSCVASGFTFSSYHMSWVRQAPGKGLQWVAYINSAGSTTSYTDAVQGRFTISRDNAKNTLYLQMNSLRAEDTAVYYCASEWIFMPWGQGSLVTVSS VL: SYVLTQLPSKNVTLKQPAHITCGGDNIGSKSVHWYQQKLGQAPVLIIYYDSSRPTGIPERFSGANSGNTATLTISGALAEDEADYYCQVWDSSAKARVFGEGTQLTVL then? class 1

Okay, and PMX181 (monospecific anti-canine CD3, canine IgG-B effector function deficient Fc) (antibody, V domains shown) VH: ELTLQESGPGLVKPSQTLSLTCIVSGGSVTNNYYWTWIRQRPGRGLEWMGYWTGFTNYNPAFQGRISIIANTAKKQLSLQLSSLTTEDTAVYYCARRAIPTYFDYWGQGTLVTVSS VL: SYVLTQLPSKNVTLKQPAHITCGGDNIGSRSVHWYQQKLGQAPVLIIYYDSSRPTGIPERFSGANSGNTATLTISGALAEDEADYYCQVWDSSASVFGGGTHLTVL ? class 0
